test: Kinetic solubility measurement in bio-relevant media; type: physicochemical; conditions: simulated gastric fluid, thermodynamic from solid; SGF (pH 1.8); 37° C.; 1 h
QUANTITY_MEASURED: solubility at 1 h (µg/mL)
API: value field is a number in µg/mL; no unit string.

What value of measured solubility at 1 h is listed for CC(=O)c1ccc2c(c1)[C@@H]1C=CC[C@@H]1[C@H](c1cc3c(cc1Br)OCO3)N2 [SRR G-1 Form A] ?
5.9

---

target: CYP2D6 (Homo sapiens); assay: in vitro; type: in vitro ADME
Sequence (P10635 whole entry, species assumed): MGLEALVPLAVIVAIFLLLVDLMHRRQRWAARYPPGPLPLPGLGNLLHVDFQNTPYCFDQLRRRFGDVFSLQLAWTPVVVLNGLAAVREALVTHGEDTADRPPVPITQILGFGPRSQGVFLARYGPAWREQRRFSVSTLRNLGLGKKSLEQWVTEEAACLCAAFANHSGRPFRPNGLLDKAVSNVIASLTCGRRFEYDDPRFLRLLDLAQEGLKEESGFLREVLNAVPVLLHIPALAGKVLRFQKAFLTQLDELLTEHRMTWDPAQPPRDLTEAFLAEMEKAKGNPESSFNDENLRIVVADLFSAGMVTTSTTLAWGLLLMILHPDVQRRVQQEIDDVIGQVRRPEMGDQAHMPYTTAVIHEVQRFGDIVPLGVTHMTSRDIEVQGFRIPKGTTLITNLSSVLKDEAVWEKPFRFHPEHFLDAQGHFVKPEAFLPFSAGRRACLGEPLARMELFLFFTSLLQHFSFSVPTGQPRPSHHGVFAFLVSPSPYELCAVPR
QUANTITY_MEASURED: inhibition at 10 µM
The reply must contain the numeric value and, after it, the unit.

What value of measured inhibition at 10 µM is listed for CC(=O)c1ccc2c(c1)[C@@H]1C=CC[C@@H]1[C@H](c1cc3c(cc1Br)OCO3)N2 (single isomer, unassigned) ?
74.3%
